Entry source: the RNAGym collection of RNA variant scans (doi:10.1101/gad.245936.114)

B1: tRNA (parent)
chain: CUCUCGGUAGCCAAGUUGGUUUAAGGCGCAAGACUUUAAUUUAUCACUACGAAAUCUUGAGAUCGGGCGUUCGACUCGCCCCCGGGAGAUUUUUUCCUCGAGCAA

Variants of: B1
Assay: nonsense suppression (GFP-seq) (ratio to wild type); higher = more function; SUP4oc tRNA, yeast GFP reporter sort-seq
Fewer inactive variants are shown than the library holds.
# nonsense suppression listing for each entry below
No unit in the answer, please; the number alone is enough.

{"mutation_list": "C12U A13G U21A", "result_value": 0.0262}

Query: Input U17C A24C , output reported nonsense suppression.
Reply: 0.276
